For each entry below, report its Tm3 (° C.) value.
# assay.remarks: Intrinsic thermodynamic stability by DSC
# Assay type: physicochemical
# condition.parameters: same buffer
// units = °C; emit number, no label

Tell me Tm3 (° C.) reported for Hu2B5.6: humanized 2B5-8.0; VH SEQ ID NO 70, VL SEQ ID NO 71 (antibody, V domains shown) VH: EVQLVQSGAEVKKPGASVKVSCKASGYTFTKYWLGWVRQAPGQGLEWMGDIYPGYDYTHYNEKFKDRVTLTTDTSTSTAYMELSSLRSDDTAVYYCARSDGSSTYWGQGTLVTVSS VL: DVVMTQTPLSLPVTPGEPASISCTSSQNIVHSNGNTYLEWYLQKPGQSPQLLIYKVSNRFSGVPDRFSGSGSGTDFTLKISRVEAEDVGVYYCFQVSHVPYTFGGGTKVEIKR 82.95

Tell me Tm3 (° C.) reported for Hu2B5.4: humanized 2B5-8.0; VH SEQ ID NO 66, VL SEQ ID NO 67 (antibody, V domains shown) VH: EVQLVQSGAEVKKPGASVKVSCKASGYTFTKYWLGWVRQAPGQGLEWIGDIYPGYDYTHYNEKFKDRATLTVDTSTSTAYMELSSLRSDDTAVYYCARSDGSSTYWGQGTLVTVSS VL: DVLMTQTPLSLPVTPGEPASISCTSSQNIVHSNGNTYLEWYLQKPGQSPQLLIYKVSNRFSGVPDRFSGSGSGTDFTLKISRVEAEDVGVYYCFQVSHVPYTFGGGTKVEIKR 82.58
